The following compounds are listed with their measured EC50 values.
# assayedTarget: human somatostatin receptor subtype 2 (Homo sapiens, UniProt P30874)
# Construct: expressed in transfected cells
# protocolNotes: Functional assay for SSTR2 agonists (HTRF cAMP)
# Format: cell-based
# experimentalParameters: CHO-K1 cells stably expressing human SST2; NKH477-stimulated cAMP; 20 min at 37 C; read-out: hSST2 cAMP Avg EC50
# number only, unit nM dropped from output

[
  {
    "compound": "CC[C@H](C)[C@@H]([C@@H](CC(=O)N1CCC[C@H]1[C@H](OC)[C@@H](C)C(=O)N[C@H](C)[C@@H](O)c1ccccc1)OC)N(C)C(=O)[C@@H](NC(=O)[C@H](C(C)C)N(C)C(=O)OCc1ccc(NC(=O)[C@H](CCCNC(N)=O)NC(=O)[C@@H](NC(=O)CCOCCOCCC(=O)NCCNc2ncc(-c3cc(C)cc(F)c3)c(N3CCC(N)CC3)c2-c2nc3ccc(Cl)cc3[nH]2)C(C)C)cc1C(=O)NCCNC(=O)CCOCCOCCOCCOCCC(=O)O)C(C)C [Compound 74]",
    "EC50 [nM]": 0.19
  }
]

Q: Provide EC50 value for the following compound: CC[C@H](C)[C@@H]([C@@H](CC(=O)N1CCC[C@H]1[C@H](OC)[C@@H](C)C(=O)N[C@H](C)[C@@H](O)c1ccccc1)OC)N(C)C(=O)[C@@H](NC(=O)[C@H](C(C)C)N(C)C(=O)OCc1ccc(NC(=O)[C@H](C)NC(=O)[C@@H](NC(=O)CCOCCC(=O)NCCNc2ncc(-c3cc(C)cc(F)c3)c(N3CCC(N)CC3)c2-c2nc3ccc(Cl)cc3[nH]2)C(C)C)c(O[C@@H]2O[C@H](C(N)=O)[C@@H](O)[C@H](O)[C@H]2O)c1)C(C)C [Compound 34]
Ans: 0.12

Q: Provide EC50 value for the following compound: CC[C@H](C)[C@@H]([C@@H](CC(=O)N1CCC[C@H]1[C@H](OC)[C@@H](C)C(=O)N[C@H](C)[C@@H](O)c1ccccc1)OC)N(C)C(=O)[C@@H](NC(=O)[C@H](C(C)C)N(C)C(=O)OCc1ccc(NC(=O)[C@H](CCCNC(N)=O)NC(=O)[C@@H](NC(=O)c2cc(NCCOCCC(=O)NCCNc3ncc(-c4cc(C)cc(F)c4)c(N4CCC(N)CC4)c3-c3nc4ccc(Cl)cc4[nH]3)cc(C(=O)NCCC(=O)O)c2)C(C)C)cc1)C(C)C [Compound 145]
Ans: 0.38

----------
# assayedTarget: SST2 (Homo sapiens, UniProt P30874)
# Construct: host or cells: PathHunter CHO-K1 SST2 cells
# Sequence (P30874 whole entry): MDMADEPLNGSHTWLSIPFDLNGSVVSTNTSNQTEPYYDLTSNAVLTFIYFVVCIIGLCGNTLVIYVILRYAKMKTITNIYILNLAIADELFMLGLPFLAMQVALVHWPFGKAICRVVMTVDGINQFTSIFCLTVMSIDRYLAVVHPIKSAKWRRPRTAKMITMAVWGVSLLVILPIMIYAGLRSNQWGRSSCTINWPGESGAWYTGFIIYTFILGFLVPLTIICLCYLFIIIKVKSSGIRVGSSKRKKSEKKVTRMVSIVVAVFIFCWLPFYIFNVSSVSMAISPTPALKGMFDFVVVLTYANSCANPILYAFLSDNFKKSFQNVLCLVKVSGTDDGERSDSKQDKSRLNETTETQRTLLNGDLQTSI
# protocolNotes: PathHunter CHO-K1 SST2 Internalization Assay
# Assay type: cell-based
# experimentalParameters: PathHunter CHO-K1 SST2 cells; 90 min at 37 C; luminescence; read-out: Internalization EC50
Strictly below 4 nM in EC50: class 1. Otherwise: class 0.

[
  {
    "entrySmiles": "CC[C@H](C)[C@@H]([C@@H](CC(=O)N1CCC[C@H]1[C@H](OC)[C@@H](C)C(=O)N[C@H](C)[C@@H](O)c1ccccc1)OC)N(C)C(=O)[C@@H](NC(=O)[C@H](C(C)C)N(C)C(=O)OCc1ccc(NC(=O)[C@H](C)NC(=O)[C@@H](NC(=O)CCOCCC(=O)NCCNc2ncc(-c3cc(C)cc(F)c3)c(N3CCC(N)CC3)c2-c2nc3ccc(Cl)cc3[nH]2)C(C)C)c(O[C@@H]2O[C@H](C(=O)NCC(=O)O)[C@@H](O)[C@H](O)[C@H]2O)c1)C(C)C",
    "assayedTarget": "SST2 (Homo sapiens, UniProt P30874)",
    "classLabel": "class 1"
  },
  {
    "entrySmiles": "CC[C@H](C)[C@@H]([C@@H](CC(=O)N1CCC[C@H]1[C@H](OC)[C@@H](C)C(=O)N[C@H](C)[C@@H](O)c1ccccc1)OC)N(C)C(=O)[C@@H](NC(=O)[C@H](C(C)C)N(C)C(=O)OCc1ccc(NC(=O)[C@H](CCCNC(N)=O)NC(=O)[C@@H](NC(=O)c2cc(NCCOCCC(=O)NCCNc3ncc(-c4cc(C)cc(F)c4)c(N4CCC(N)CC4)c3-c3nc4ccc(F)cc4[nH]3)cc(C(=O)NCC(=O)O)c2)C(C)C)cc1)C(C)C",
    "assayedTarget": "SST2 (Homo sapiens, UniProt P30874)",
    "classLabel": "class 0"
  },
  {
    "entrySmiles": "CC[C@H](C)[C@@H]([C@@H](CC(=O)N1CCC[C@H]1[C@H](OC)[C@@H](C)C(=O)N[C@H](C)[C@@H](O)c1ccccc1)OC)N(C)C(=O)[C@@H](NC(=O)[C@H](C(C)C)N(C)C(=O)OCc1ccc(NC(=O)[C@H](CCCNC(N)=O)NC(=O)[C@@H](NC(=O)CCOCCC(=O)NCCNc2ncc(-c3cc(C)cc(F)c3)c(N3CCC(N)CC3)c2-c2nc3ccc(Cl)cc3[nH]2)C(C)C)c(OCCN)c1)C(C)C",
    "assayedTarget": "SST2 (Homo sapiens, UniProt P30874)",
    "classLabel": "class 1"
  }
]

Q: I'd appreciate it if you could check whether CC[C@H](C)[C@@H]([C@@H](CC(=O)N1CCC[C@H]1[C@H](OC)[C@@H](C)C(=O)N[C@H](C)[C@@H](O)c1ccccc1)OC)N(C)C(=O)[C@@H](NC(=O)[C@H](C(C)C)N(C)C(=O)OCc1ccc(NC(=O)[C@H](CCCNC(N)=O)NC(=O)[C@@H](NC(=O)c2cc(NCCOCCC(=O)NCCNc3ncc(-c4cc(C)cc(F)c4)c(N4CCC(N)CC4)c3-c3nc4ccc(Cl)cc4[nH]3)cc(C(=O)NCCN(CC(=O)O)CC(=O)O)c2)C(C)C)cc1)C(C)C has EC50 smaller than 4 nM.
Ans: class 0
